- Assay procedure: NCI Yeast Anticancer Drug Screen. Data for the bub3 strain (AID 167)
- Applied conditions: S. cerevisiae bub3 mutant strain, at 50.0 µM
Compounds without any hit were thinned out: in the full panel of roughly 79,000, 15% have a hit. Active and inactive are the calls of the source. No stated cut-off is given here; in the data, active means growth inhibition above about 70%; inactive means the rest.
Respond using exactly one of the listed classes: active, inactive

q: Call for entry CC(NC(=O)OCc1ccccc1)C(=O)NNc1ccccc1Cl (configuration not stated) :
a: active

q: Dear colleague, could you share the recorded outcome for CCCCCCCCCCNC(=O)CBr when you have a moment?
a: active

q: Short answer needed: outcome of this test for CN1CCCCC1c1cc2c3ccccc3ccn2c1-c1ccccc1 (configuration not stated) ?
a: active

q: What classification did CCCCCCCCc1ccc2c3ccccc3c3ccccc3c2c1 end up with in this test?
a: inactive

q: Given CCC(Cl)COP(=O)(OCC(Cl)CC)OC(c1ccc(Cl)c(Cl)c1)P(=O)(OCC(Cl)CC)OCC(Cl)CC (configuration not stated) , state the outcome it received in this test.
a: inactive

q: // outcome(item) with item = O=S(=O)(c1ccccc1)n1cc(C[P+](c2ccccc2)(c2ccccc2)c2ccccc2)c2ccccc21
a: active

q: // outcome(item) with item = O=C(OC1CC2CC1C1CC=CC21)c1ccccc1 (configuration not stated)
a: inactive

q: State the result this test recorded for CCCCCCCCCCCCCCCCOCC(Cl)COP(=O)(O)OP(=O)(O)OCC1OC(n2cc(C)c(=O)[nH]c2=O)CC1O (configuration not stated) .
a: active

q: Give the logged outcome of this assay for the following compound: O=C(O)C1C(C(=O)O)C2C(=O)C=CC1N2Cc1ccccc1 (configuration not stated)
a: active

q: Hello, I am checking results. What call was entered for Cc1c2ccncc2c(C)c2c1sc1ccccc12 ?
a: active

q: Recorded test outcome, item NC(=S)NNC(=O)c1cccnc1
a: inactive

q: Test call for this compound, please: COC1OC(CN=[N+]=[N-])C(OC(=O)c2ccccc2)C(OC(C)=O)C1OC(C)=O (configuration not stated)
a: active

q: Given Brc1cc2c(c(Br)c1Br)C(Br)(Br)C(c1ccccc1)=N2 , state the outcome it received in this test.
a: inactive

q: How did this test come out for O=C1C=CC(=O)N1c1cccc([N+](=O)[O-])c1 ?
a: active

q: Which outcome did this test record for the compound C1=C(c2c(-c3ccccc3)[nH]c3ccccc23)Cc2ccccc21 ?
a: active

q: Given CCNc1cc2c3c(c1)CCCN3CCC2 , state the outcome it received in this test.
a: inactive

q: Recorded test outcome, item O=C(O)CCC(=O)NNc1ccccc1
a: active

q: Hello, I am checking results. What call was entered for C/C=C/C/S(=N\S(=O)(=O)c1ccc(C)cc1)c1ccccc1 (configuration not stated) ?
a: active

q: What was the test verdict on Cc1c(C(C)(C)C)cc(C(C)(C)C)c(O)c1CN(C)Cc1c(C)c(C(C)(C)C)cc(C(C)(C)C)c1O ?
a: active

q: Assay result, entry CCOc1ccc2nc(NC(=O)c3c/c(=N\NC(=O)C[N+](C)(C)C)c4ccc(O)cc4o3)sc2c1 — outcome?
a: active

q: Given O=C(c1ccccc1)C1C(c2ccccc2)OP(c2ccccc2)(c2ccccc2)(c2ccccc2)C1c1ccccc1 (configuration not stated) , state the outcome it received in this test.
a: active

q: Please indicate how the test categorized Cc1ccc(S(=O)(=O)NNC2Oc3cc4c(cc3C(c3ccccc3O)C2C)OCO4)cc1 (configuration not stated) .
a: active
